Please respond with reported cell viability for every item in the list.
Test system: P12-Ichikawa
TEST DESCRIPTION: cell viability relative to DMSO control; higher = less cytotoxic
RUN CONDITIONS: HPLM + 10% dialyzed FBS; 48 h; 0.0211 µM
Please give a number only; it is taken to be in %.

GET /value?item= O=C(Nc1cccnc1)N1CCC(Cc2cccc(Oc3ccc(C(F)(F)F)cn3)c2)CC1 &field=cell viability returns 104

CC(C)(C)[C@]1(O)C[C@@H]2OC(=O)C[C@@]23C(=O)O[C@@H]2OC(=O)[C@H](O)C213 (some centres not stated) has a reported cell viability of 126

// field: cell viability; key: CCn1c(C(=O)N(C2CC2)C2CC2)cc2c3c(ncn3C)c(Nc3cc(C)n(C)n3)nc21 ; value = 104

What the record says about COc1ccc(/C=C/C(=O)Nc2ccccc2C(=O)O)cc1OC : cell viability is 112

get_value(item= CC1=CC/2=C(C=C1C)N(C[C@@H](O)[C@@H](O)[C@@H](O)CO)C/3=N/C(=O)NC(=O)C3=N2 , readout=cell viability) returns 116

Briefly, cell viability measured for CN1CCN(CC1)C2=CC3=C([NH]C(=N3)C/4=C(\N)C5=C(F)C=CC=C5NC4=O)C=C2 : 99.2

GET /value?item= CC(C)(C)NCC(O)c1ccc(O)c(CO)c1 (configuration not stated) &field=cell viability returns 105

---

Test system: P12-Ichikawa
TEST DESCRIPTION: cell viability relative to DMSO control; higher = less cytotoxic
RUN CONDITIONS: RPMI 5 mM glucose + 10% dialyzed FBS; 48 h; 0.0211 µM
Kindly supply the reported cell viability values for the records listed here.
Quick note: give the figure in %, leave out the unit.

get_value(item= CC(C)[C@H]1C(=O)N[C@H](CO)Cc2c[nH]c3cccc(c23)N1C , readout=cell viability) returns 101

Data point: CCC(=O)O[C@@]1(CC[C@H]2[C@@H]3CCC/4=C/C(=O)CC[C@]4(C)[C@H]3CC[C@]12C)C(=O)CO ; cell viability = 109

Reported cell viability of CCOc1cc(C(=O)Nc2ccc(Cl)c(-c3nc4ccccc4[nH]3)c2)cc(OCC)c1OCC : 86.5

# cell viability of O=C(CCCN1CCC(O)(c2ccc(Cl)cc2)CC1)c1ccc(F)cc1 = 111

For record COc1ccc(-n2c(C)c([N+](=O)[O-])c3ccc(O)cc32)cc1 the listed cell viability is 122

# cell viability of CN(C)CCc1c[nH]c2ccc(Cn3cncn3)cc12 = 92.4

Short answer for COc1cc2c(cc1OC)CN(CCc1ccc(NC(=O)c3cccc4c(=O)c5cccc(OC)c5[nH]c34)cc1)CC2 : cell viability was 111

Input COc1ccc(/C=C/C(=O)Nc2ccccc2C(=O)O)cc1OC . Output cell viability: 114

---

System: SEM cells
TEST DESCRIPTION: cell viability relative to DMSO control; higher = less cytotoxic
RUN CONDITIONS: HPLM + 10% dialyzed FBS; 48 h; 0.00234 µM
Answer each item with its documented cell viability.
All answers are understood in %, so give the number only.

get_value(item= Cc1ccc(C(=O)Nc2ccc([S+](=O)([O-])O)c3cc([S+](=O)([O-])O)cc([S+](=O)([O-])O)c23)cc1NC(=O)c1cccc(NC(=O)Nc2cccc(C(=O)Nc3cc(C(=O)Nc4ccc([S+](=O)([O-])O)c5cc([S+](=O)([O-])O)cc([S+](=O)([O-])O)c45)ccc3C)c2)c1 , readout=cell viability) returns 105

The reported value for CC[C@H]1OC(=O)[C@H](C)[C@@H](O[C@H]2C[C@@](C)(OC)[C@@H](O)[C@H](C)O2)[C@H](C)[C@@H](O[C@@H]2O[C@H](C)C[C@H](N(C)C)[C@H]2O)[C@](C)(O)C[C@@H](C)/C(=N\OCOCCOC)[C@H](C)[C@@H](O)[C@]1(C)O in terms of cell viability is 89

Input NC(=O)N1CCC(CC(=O)N2CCC([C@H]3c4ncc(Br)cc4CCc4cc(Cl)cc(Br)c43)CC2)CC1 . Output cell viability: 99.3

// COc1cc2cc(c1Cl)N(C)C(=O)C[C@H](OC(=O)C(C)C)[C@]1(C)O[C@@H]1[C@H](C)[C@@H]1C[C@@](O)(NC(=O)O1)[C@H](OC)/C=C/C=C(\C)C2 : cell viability value = 26

Kindly note the recorded cell viability for CC(C)(C)[C@]1(O)C[C@@H]2OC(=O)C[C@@]23C(=O)O[C@@H]2OC(=O)[C@H](O)C213 (stereo partly drawn) , which is 108

// cell viability value for COc1cc2c(cc1OC)CN(CCc1ccc(NC(=O)c3cccc4c(=O)c5cccc(OC)c5[nH]c34)cc1)CC2 : 98.8

Short answer for Cc1nc(-c2ccc(-c3ccc(C(=O)N4CCc5cc6c(cc54)C4(CCN(C)CC4)CO6)cc3)c(C)c2)no1 : cell viability was 104

For reference, reported cell viability for Clc1ccc(C(c2ccccc2Cl)C(Cl)Cl)cc1 (stereo not drawn) stands at 116

---

Tested on: P12-Ichikawa
TEST DESCRIPTION: cell viability relative to DMSO control; higher = less cytotoxic
RUN CONDITIONS: HPLM + 10% dialyzed FBS; 48 h; 0.569 µM
MEASURED PARAMETER: cell viability (%)
Numbers only; they are read as %.

Record summary for Nc1nccc(-c2ccc3noc(-c4ccc(Cl)cc4)c3c2)n1 : reported cell viability = 128

NC[C@H](O)c1ccc(O)c(O)c1 has a reported cell viability of 97.4

Summary for this compound, C[C@@H](Cc1cc2c(c(C(N)=O)c1)N(CCCO)CC2)NCCOc1ccccc1OCC(F)(F)F : cell viability is 119

Entry NCCOc1cc(C(=O)Nc2cc(OCCN)c3ccccc3n2)nc(C(=O)Nc2cc(OCCN)c3ccccc3n2)c1 ; cell viability = 13.3

Looking up COCCCC/C(=N\OCCN)c1ccc(C(F)(F)F)cc1 , I see its cell viability listed as 74.4

What the record says about COc1ccc(/C=C/C(=O)Nc2ccccc2C(=O)O)cc1OC : cell viability is 93.1

Note to self: cell viability recorded for CCN(CC)CCCC(C)Nc1ccnc2cc(Cl)ccc12 (centres undefined) was 113

Form: compound = Cc1nnc(C(C)C)n1[C@@H]1C[C@H]2CC[C@@H](C1)N2CC[C@H](NC(=O)C1CCC(F)(F)CC1)c1ccccc1 ; cell viability = 113

cell viability reported for this compound CCC[C@H](Nc1nc(-c2ccc(NC(=O)NCC)c(OC)c2)ncc1C)c1cccnc1 : 9.4

---

Test system: NOMO1
TEST DESCRIPTION: AUC of viability dose-response curve (% viability x log10 dose units); higher = less sensitive
RUN CONDITIONS: RPMI 5 mM glucose + 10% dialyzed FBS; 48 h
MEASURED PARAMETER: AUC of viability dose-response curve
Give your answer as a number; write no unit.

The compound N#Cc1cc(NC(=O)Nc2nnc(-c3ccncc3)s2)ccc1-c1cn[nH]c1 showed AUC of viability dose-response curve equal to 461

Record CCCCCN(C)CCC(O)(P(=O)([O-])O)P(=O)(O)O , field AUC of viability dose-response curve: 423

For OC1=CC(=C(C=C1)\C2=C(O)\C(=O)C3=C(O2)C=C(O)C=C3O)O the compound record lists AUC of viability dose-response curve as 467

Reported AUC of viability dose-response curve of CC(C)(C)NCC(O)c1ccc(O)c(CO)c1 (stereo unspecified) : 399

Just so you know, measured AUC of viability dose-response curve for N=C1S/C(=C\c2ccc(-c3ccc4c(c3)C(=O)NC4=O)o2)C(=O)N1c1ccc(Br)cc1 came out at 459

Entry under test: C[C@@H](Cc1cc2c(c(C(N)=O)c1)N(CCCO)CC2)NCCOc1ccccc1OCC(F)(F)F . Its AUC of viability dose-response curve was 466

Data point: Cc1cccc(-c2[nH]c(C(C)(C)C)nc2-c2ccc3nccnc3c2)n1 ; AUC of viability dose-response curve = 455

AUC of viability dose-response curve recorded for this compound, COc1cc(N2CCN(C)CC2)ccc1Nc1nc(N)c(C(=O)c2c(Cl)cccc2Cl)s1 , is 467

Reported AUC of viability dose-response curve for CC(C)c1cccc(C(C)C)c1O was 455

Looking up O=C(Nc1cccnc1)N1CCC(Cc2cccc(Oc3ccc(C(F)(F)F)cn3)c2)CC1 , I see its AUC of viability dose-response curve listed as 425

Entry CC[C@H](CO)Nc1nc(NCc2ccccc2)c2ncn(C(C)C)c2n1 ; AUC of viability dose-response curve = 427

Form: compound = COc1ccc(/C=C/C(=O)Nc2ccccc2C(=O)O)cc1OC ; AUC of viability dose-response curve = 463

Per the record, COc1ccc(-n2c(C)c([N+](=O)[O-])c3ccc(O)cc32)cc1 has AUC of viability dose-response curve of 446

Recorded AUC of viability dose-response curve (compound c1ccc2c(CN3CCNCC3)cccc2c1 ): 456

Briefly, AUC of viability dose-response curve measured for Clc1ccc(C(c2ccccc2Cl)C(Cl)Cl)cc1 (stereo unspecified) : 448

Noted for COCC(=O)NC/C=C/c1ccc2ncnc(Nc3ccc(Oc4ccc(C)nc4)c(C)c3)c2c1 : its AUC of viability dose-response curve reads 384

The recorded AUC of viability dose-response curve for c1coc(CNc2ncnc3nc[nH]c23)c1 is 445

The compound listed as CC1(C)[C@@H](O)CC[C@@]2(C)[C@H]1CC[C@]3(C)[C@@H]2C(=O)\C=C/4[C@@H]5C[C@](C)(CC[C@]5(C)CC[C@@]34C)C(O)=O shows AUC of viability dose-response curve equal to 460

// AUC of viability dose-response curve lookup, compound = CNC(=O)c1nn(C)c2c1C(C)(C)Cc1cnc(Nc3ccc(N4CCN(C)CC4)cc3)nc1-2 , result: 386

Looking up Cc1nc2ccc(CN(C)c3ccc(C(=O)N[C@@H](CCC(=O)O)C(=O)O)s3)cc2c(=O)[nH]1 , I found its AUC of viability dose-response curve recorded as 305

Please fill in: AUC of viability dose-response curve reported for COC1=CC(=CC(=C1)C2=CC=C3N=CC\4=C(N(C(=O)\C=C4)C5=CC(=C(C=C5)N6CCNCC6)C(F)(F)F)C3=C2)OC = 436

Ref: the supplement of paper PMC11451515
